- Assay target: human GPR120 (Homo sapiens, UniProt Q5NUL3)
- Sequence (Q5NUL3 1-361): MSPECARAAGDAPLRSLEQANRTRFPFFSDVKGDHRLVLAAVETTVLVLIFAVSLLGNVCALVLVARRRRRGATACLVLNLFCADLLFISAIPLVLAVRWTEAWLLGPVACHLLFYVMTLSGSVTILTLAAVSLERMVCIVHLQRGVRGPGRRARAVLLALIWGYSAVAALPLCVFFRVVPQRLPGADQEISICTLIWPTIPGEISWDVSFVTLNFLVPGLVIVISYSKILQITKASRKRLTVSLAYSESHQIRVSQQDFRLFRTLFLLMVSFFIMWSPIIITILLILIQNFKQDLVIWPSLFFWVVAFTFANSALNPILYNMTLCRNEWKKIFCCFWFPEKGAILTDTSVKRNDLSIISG
- Test protocol: GPR120 pERK AlphaScreen SureFire assay (human)
- Reported conditions: CHO cells stably transfected with short form of human GPR120
Collected pEC50 values appear next to each entry.
# pEC50: negative log10 of molar concentration; output just the value

| Molecule | Assay target | pEC50 |
| --- | --- | --- |
| O=C(O)[C@@H]1C[C@H]1CCC12CCC(c3cccc(Oc4ccc(F)c(F)c4)c3)(CC1)OC2 | human GPR120 (Homo sapiens, UniProt Q5NUL3) | 6.27 |
| OCC(O)CCCC12CCC(c3cccc(Oc4ccccc4)c3)(CC1)OC2 (racemic) [Example 58] | human GPR120 (Homo sapiens, UniProt Q5NUL3) | 6.54 |
| COc1cc(F)cc(Oc2cc(F)cc(C34CCC(CCOCC(=O)O)(CC3)CO4)c2)c1 | human GPR120 (Homo sapiens, UniProt Q5NUL3) | 6.33 |
| Cc1ccc(Oc2cc(F)cc(C34CCC(CCOCC(=O)O)(CC3)CO4)c2)cc1 | human GPR120 (Homo sapiens, UniProt Q5NUL3) | 6.49 |
| O=C(O)COCCC12CCC(c3cc(F)cc(Oc4ccc(F)cc4)c3)(CC1)OC2 | human GPR120 (Homo sapiens, UniProt Q5NUL3) | 6.51 |
| CC(C)Oc1cccc(C23CCC(CCOCC(=O)O)(CC2)CO3)c1 | human GPR120 (Homo sapiens, UniProt Q5NUL3) | 5.12 |

Field: next molecule
Q: Report pEC50 under test system human GPR120 (Homo sapiens, UniProt Q5NUL3) for CC(C)=COc1cccc(C23CCC(CCOCC(=O)O)(CC2)CO3)c1 .
Result: 6.19
